ASSAYED_TARGET: Cyclin-dependent kinase 1/cyclin B (Homo sapiens)
PROTOCOL_NOTES: Inhibition of CDK1/cyclinB by Flashplate assay
QUANTITY: IC50 (nM)

{"LINE_NOTATION": "Cc1[nH]c2ncccc2c1-c1ccnc(N[C@H]2CC[C@H](N)CC2)n1", "IC50, nM": 280}

P. Cc1cc(CCN2CCCCC2)ccc1Nc1nccc(-c2c[nH]c3ncccc23)n1
Q. Cc1ccccc1Nc1nccc(-c2c[nH]c3ncccc23)n1
Which gives the smaller IC50 number: P or Q ? Identify your pick by its label.
P

1. Cc1cc(CCN2CCCC2)ccc1Nc1nccc(-c2c[nH]c3ncccc23)n1
2. Clc1ccccc1Nc1nccc(-c2c[nH]c3ncccc23)n1
// max by IC50 over [ 1 , 2 ] Identify your pick by its label.
2

###

ASSAYED_TARGET: Cyclin-dependent kinase 1/cyclin B (Homo sapiens, UniProt P06493)
PROTOCOL_NOTES: Inhibition of CDK1/cyclinB by Flashplate assay
Assay type: protein-complex assay
QUANTITY: IC50 (nM)

{"LINE_NOTATION": "Cc1cc(CCO)ccc1Nc1nccc(-c2c[nH]c3ncccc23)n1", "ASSAYED_TARGET": "Cyclin-dependent kinase 1/cyclin B (Homo sapiens, UniProt P06493)", "OBSERVED_MEASUREMENT": 0.6}

A. Brc1ccccc1Nc1nccc(-c2c[nH]c3ncccc23)n1
B. N[C@H]1CC[C@H](Nc2nccc(-c3c[nH]c4ncccc34)n2)CC1
// max by IC50 over [ A , B ] Identify your pick by its label.
A
(A: 13 nM, B: 2 nM)
